Can you tell me per cent of control for the items I'm about to list?
# TARGET_OR_SYSTEM: BTK (human)
# RUN_PARAMETERS: compound 10.0 µM
Unit % implied. Number only.

// per cent of control value for `COc1ccc(-c2ccc3c(N4CCOCC4)nc(N4C[C@@H](C)O[C@@H](C)C4)nc3n2)cc1CO` : 81

// per cent of control value for `COC(=O)Nc1ccc(-c2nc(N3CCOCC3)c3cnn(C4CCN(C(=O)OC)CC4)c3n2)cc1` : 99

// per cent of control value for `CCC(=O)N1CCN(c2ccc(-n3c(=O)ccc4cnc5ccc(-c6cnc7ccccc7c6)cc5c43)cc2C(F)(F)F)CC1` : 56

// per cent of control value for `CC(C)n1nc(-c2cc3cc(O)ccc3[nH]2)c2c(N)ncnc21` : 5

----------
# TARGET_OR_SYSTEM: PRKD1 (human)
# ASSAY_PROCEDURE: KINOMEscan competition binding
# RUN_PARAMETERS: compound 10.0 µM
Can you tell me kinase still bound, per cent of control for the items I'm about to list?
Unit % implied. Number only.

// kinase still bound, per cent of control value for `COc1ccc(-c2ccc3c(N4CCOCC4)nc(N4C[C@@H](C)O[C@@H](C)C4)nc3n2)cc1CO` : 91

// kinase still bound, per cent of control value for `CC(C)n1nc(-c2cc3cc(O)ccc3[nH]2)c2c(N)ncnc21` : 100

// kinase still bound, per cent of control value for `COC(=O)Nc1ccc(-c2nc(N3CCOCC3)c3cnn(C4CCN(C(=O)OC)CC4)c3n2)cc1` : 95

// kinase still bound, per cent of control value for `CCC(=O)N1CCN(c2ccc(-n3c(=O)ccc4cnc5ccc(-c6cnc7ccccc7c6)cc5c43)cc2C(F)(F)F)CC1` : 99

----------
# TARGET_OR_SYSTEM: EPHA6 (human) (UniProt Q9UF33)
# Sequence (Q9UF33 whole entry, looked up): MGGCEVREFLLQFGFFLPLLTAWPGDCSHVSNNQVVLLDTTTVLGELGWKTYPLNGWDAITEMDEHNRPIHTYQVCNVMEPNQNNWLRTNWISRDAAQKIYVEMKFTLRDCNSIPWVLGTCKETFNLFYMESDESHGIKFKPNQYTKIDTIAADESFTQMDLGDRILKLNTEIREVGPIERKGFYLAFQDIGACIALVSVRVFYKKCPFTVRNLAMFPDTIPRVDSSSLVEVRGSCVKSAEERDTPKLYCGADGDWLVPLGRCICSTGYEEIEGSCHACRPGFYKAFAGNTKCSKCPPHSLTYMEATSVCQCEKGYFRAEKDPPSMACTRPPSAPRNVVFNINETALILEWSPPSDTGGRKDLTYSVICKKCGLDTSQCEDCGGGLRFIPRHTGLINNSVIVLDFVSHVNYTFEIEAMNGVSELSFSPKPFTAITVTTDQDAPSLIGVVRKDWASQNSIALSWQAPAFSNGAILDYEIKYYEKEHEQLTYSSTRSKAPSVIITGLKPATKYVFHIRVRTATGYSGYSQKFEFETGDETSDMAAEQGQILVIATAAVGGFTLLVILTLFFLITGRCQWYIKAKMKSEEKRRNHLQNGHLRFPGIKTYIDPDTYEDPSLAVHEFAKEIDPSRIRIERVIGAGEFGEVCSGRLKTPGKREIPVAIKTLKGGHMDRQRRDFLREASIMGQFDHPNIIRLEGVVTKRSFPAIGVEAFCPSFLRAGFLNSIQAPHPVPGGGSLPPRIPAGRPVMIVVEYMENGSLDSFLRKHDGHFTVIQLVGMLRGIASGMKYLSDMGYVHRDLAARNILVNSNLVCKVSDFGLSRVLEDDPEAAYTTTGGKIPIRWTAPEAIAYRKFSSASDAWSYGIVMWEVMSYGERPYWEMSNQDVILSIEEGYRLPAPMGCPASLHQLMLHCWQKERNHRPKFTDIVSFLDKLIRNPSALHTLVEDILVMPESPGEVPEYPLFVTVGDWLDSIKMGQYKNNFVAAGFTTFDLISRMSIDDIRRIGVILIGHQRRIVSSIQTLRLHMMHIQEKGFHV
# ASSAY_PROCEDURE: KINOMEscan competition binding
# RUN_PARAMETERS: compound 10.0 µM
RECORDED_ENDPOINT: kinase still bound, per cent of control (%)
Unit % implied. Number only.

// kinase still bound, per cent of control value for `CCC(=O)N1CCN(c2ccc(-n3c(=O)ccc4cnc5ccc(-c6cnc7ccccc7c6)cc5c43)cc2C(F)(F)F)CC1` : 75

// kinase still bound, per cent of control value for `COc1ccc(-c2ccc3c(N4CCOCC4)nc(N4C[C@@H](C)O[C@@H](C)C4)nc3n2)cc1CO` : 100

// kinase still bound, per cent of control value for `COC(=O)Nc1ccc(-c2nc(N3CCOCC3)c3cnn(C4CCN(C(=O)OC)CC4)c3n2)cc1` : 90

// kinase still bound, per cent of control value for `CC(C)n1nc(-c2cc3cc(O)ccc3[nH]2)c2c(N)ncnc21` : 5.2

----------
Can you tell me per cent of control for the items I'm about to list?
# TARGET_OR_SYSTEM: UniProtKB Q02750
# Sequence (Q02750 whole entry, looked up): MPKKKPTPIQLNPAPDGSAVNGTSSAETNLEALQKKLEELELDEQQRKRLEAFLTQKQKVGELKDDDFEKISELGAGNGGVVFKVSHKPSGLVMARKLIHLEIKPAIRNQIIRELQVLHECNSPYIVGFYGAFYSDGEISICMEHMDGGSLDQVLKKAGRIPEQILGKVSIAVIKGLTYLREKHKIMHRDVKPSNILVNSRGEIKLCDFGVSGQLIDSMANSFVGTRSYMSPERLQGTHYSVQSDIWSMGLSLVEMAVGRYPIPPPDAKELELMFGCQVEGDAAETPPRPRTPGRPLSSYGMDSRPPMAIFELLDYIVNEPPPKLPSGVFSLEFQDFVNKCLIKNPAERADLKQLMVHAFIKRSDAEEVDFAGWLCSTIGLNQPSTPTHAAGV
# RUN_PARAMETERS: compound 10.0 µM
Unit % implied. Number only.

Item `CC(C)n1nc(-c2cc3cc(O)ccc3[nH]2)c2c(N)ncnc21` was tested on UniProtKB Q02750; the reported per cent of control is 10

Item `COc1ccc(-c2ccc3c(N4CCOCC4)nc(N4C[C@@H](C)O[C@@H](C)C4)nc3n2)cc1CO` was tested on UniProtKB Q02750; the reported per cent of control is 43

Item `COC(=O)Nc1ccc(-c2nc(N3CCOCC3)c3cnn(C4CCN(C(=O)OC)CC4)c3n2)cc1` was tested on UniProtKB Q02750; the reported per cent of control is 79

Item `CCC(=O)N1CCN(c2ccc(-n3c(=O)ccc4cnc5ccc(-c6cnc7ccccc7c6)cc5c43)cc2C(F)(F)F)CC1` was tested on UniProtKB Q02750; the reported per cent of control is 22

----------
# TARGET_OR_SYSTEM: CDK19 (human) (UniProt Q9BWU1)
# ASSAY_PROCEDURE: KINOMEscan competition binding
# RUN_PARAMETERS: compound 10.0 µM
RECORDED_ENDPOINT: per cent of control (%)
Unit % implied. Number only.

Item `CC(C)n1nc(-c2cc3cc(O)ccc3[nH]2)c2c(N)ncnc21` was tested on CDK19 (human) (UniProt Q9BWU1); the reported per cent of control is 24

Item `COC(=O)Nc1ccc(-c2nc(N3CCOCC3)c3cnn(C4CCN(C(=O)OC)CC4)c3n2)cc1` was tested on CDK19 (human) (UniProt Q9BWU1); the reported per cent of control is 98

Item `COc1ccc(-c2ccc3c(N4CCOCC4)nc(N4C[C@@H](C)O[C@@H](C)C4)nc3n2)cc1CO` was tested on CDK19 (human) (UniProt Q9BWU1); the reported per cent of control is 73

Item `CCC(=O)N1CCN(c2ccc(-n3c(=O)ccc4cnc5ccc(-c6cnc7ccccc7c6)cc5c43)cc2C(F)(F)F)CC1` was tested on CDK19 (human) (UniProt Q9BWU1); the reported per cent of control is 1.2

----------
# TARGET_OR_SYSTEM: DYRK2 (human) (UniProt Q92630)
# Sequence (Q92630 whole entry, looked up): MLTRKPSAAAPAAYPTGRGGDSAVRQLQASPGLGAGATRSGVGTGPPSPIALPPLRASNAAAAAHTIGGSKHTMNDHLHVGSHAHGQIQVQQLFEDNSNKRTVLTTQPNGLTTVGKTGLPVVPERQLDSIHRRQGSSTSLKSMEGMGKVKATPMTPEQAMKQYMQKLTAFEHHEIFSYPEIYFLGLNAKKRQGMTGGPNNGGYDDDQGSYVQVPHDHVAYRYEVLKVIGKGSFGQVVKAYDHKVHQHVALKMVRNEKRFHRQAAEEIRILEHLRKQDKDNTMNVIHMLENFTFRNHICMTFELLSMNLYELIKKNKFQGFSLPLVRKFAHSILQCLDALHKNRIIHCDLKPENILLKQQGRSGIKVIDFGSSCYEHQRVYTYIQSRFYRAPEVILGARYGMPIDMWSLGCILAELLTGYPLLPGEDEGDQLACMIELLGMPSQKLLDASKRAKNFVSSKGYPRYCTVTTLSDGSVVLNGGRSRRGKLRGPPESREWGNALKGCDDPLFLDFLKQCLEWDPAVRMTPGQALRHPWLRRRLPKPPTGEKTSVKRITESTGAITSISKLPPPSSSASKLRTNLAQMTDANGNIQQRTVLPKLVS
# ASSAY_PROCEDURE: KINOMEscan competition binding
# RUN_PARAMETERS: compound 10.0 µM
RECORDED_ENDPOINT: kinase still bound, per cent of control

// kinase still bound, per cent of control value for `COc1ccc(-c2ccc3c(N4CCOCC4)nc(N4C[C@@H](C)O[C@@H](C)C4)nc3n2)cc1CO` : 63%

// kinase still bound, per cent of control value for `CC(C)n1nc(-c2cc3cc(O)ccc3[nH]2)c2c(N)ncnc21` : 1.4%

// kinase still bound, per cent of control value for `COC(=O)Nc1ccc(-c2nc(N3CCOCC3)c3cnn(C4CCN(C(=O)OC)CC4)c3n2)cc1` : 82%

// kinase still bound, per cent of control value for `CCC(=O)N1CCN(c2ccc(-n3c(=O)ccc4cnc5ccc(-c6cnc7ccccc7c6)cc5c43)cc2C(F)(F)F)CC1` : 86%

----------
# TARGET_OR_SYSTEM: PIP4K2C (human) (UniProt Q8TBX8)
# Sequence (Q8TBX8 whole entry, looked up): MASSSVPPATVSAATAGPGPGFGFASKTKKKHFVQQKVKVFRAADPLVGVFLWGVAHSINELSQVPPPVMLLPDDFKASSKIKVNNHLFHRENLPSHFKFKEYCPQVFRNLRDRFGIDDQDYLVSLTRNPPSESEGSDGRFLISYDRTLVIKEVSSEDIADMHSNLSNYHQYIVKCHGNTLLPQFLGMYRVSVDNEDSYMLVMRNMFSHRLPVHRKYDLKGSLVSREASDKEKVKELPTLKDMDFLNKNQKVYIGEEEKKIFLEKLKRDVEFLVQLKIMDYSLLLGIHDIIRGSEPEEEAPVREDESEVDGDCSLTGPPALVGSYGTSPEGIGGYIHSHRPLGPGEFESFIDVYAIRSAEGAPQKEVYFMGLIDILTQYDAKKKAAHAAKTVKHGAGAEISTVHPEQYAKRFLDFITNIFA
# ASSAY_PROCEDURE: KINOMEscan competition binding
# RUN_PARAMETERS: compound 10.0 µM
RECORDED_ENDPOINT: kinase still bound, per cent of control (%)
Unit % implied. Number only.

// kinase still bound, per cent of control value for `CCC(=O)N1CCN(c2ccc(-n3c(=O)ccc4cnc5ccc(-c6cnc7ccccc7c6)cc5c43)cc2C(F)(F)F)CC1` : 58

// kinase still bound, per cent of control value for `CC(C)n1nc(-c2cc3cc(O)ccc3[nH]2)c2c(N)ncnc21` : 9.9

// kinase still bound, per cent of control value for `COc1ccc(-c2ccc3c(N4CCOCC4)nc(N4C[C@@H](C)O[C@@H](C)C4)nc3n2)cc1CO` : 87

// kinase still bound, per cent of control value for `COC(=O)Nc1ccc(-c2nc(N3CCOCC3)c3cnn(C4CCN(C(=O)OC)CC4)c3n2)cc1` : 12

----------
# TARGET_OR_SYSTEM: MKNK1 (human)
# RUN_PARAMETERS: compound 1.0 µM
RECORDED_ENDPOINT: per cent of control (%)
Unit % implied. Number only.

// per cent of control value for `COc1ccc(-c2ccc3c(N4CCOCC4)nc(N4C[C@@H](C)O[C@@H](C)C4)nc3n2)cc1CO` : 111

// per cent of control value for `COC(=O)Nc1ccc(-c2nc(N3CCOCC3)c3cnn(C4CCN(C(=O)OC)CC4)c3n2)cc1` : 96

// per cent of control value for `CCC(=O)N1CCN(c2ccc(-n3c(=O)ccc4cnc5ccc(-c6cnc7ccccc7c6)cc5c43)cc2C(F)(F)F)CC1` : 93

// per cent of control value for `CC(C)n1nc(-c2cc3cc(O)ccc3[nH]2)c2c(N)ncnc21` : 51

----------
# System: LRRK2 (human), Q5S007 [G2019S]
# Sequence (Q5S007 whole entry G2019S, looked up): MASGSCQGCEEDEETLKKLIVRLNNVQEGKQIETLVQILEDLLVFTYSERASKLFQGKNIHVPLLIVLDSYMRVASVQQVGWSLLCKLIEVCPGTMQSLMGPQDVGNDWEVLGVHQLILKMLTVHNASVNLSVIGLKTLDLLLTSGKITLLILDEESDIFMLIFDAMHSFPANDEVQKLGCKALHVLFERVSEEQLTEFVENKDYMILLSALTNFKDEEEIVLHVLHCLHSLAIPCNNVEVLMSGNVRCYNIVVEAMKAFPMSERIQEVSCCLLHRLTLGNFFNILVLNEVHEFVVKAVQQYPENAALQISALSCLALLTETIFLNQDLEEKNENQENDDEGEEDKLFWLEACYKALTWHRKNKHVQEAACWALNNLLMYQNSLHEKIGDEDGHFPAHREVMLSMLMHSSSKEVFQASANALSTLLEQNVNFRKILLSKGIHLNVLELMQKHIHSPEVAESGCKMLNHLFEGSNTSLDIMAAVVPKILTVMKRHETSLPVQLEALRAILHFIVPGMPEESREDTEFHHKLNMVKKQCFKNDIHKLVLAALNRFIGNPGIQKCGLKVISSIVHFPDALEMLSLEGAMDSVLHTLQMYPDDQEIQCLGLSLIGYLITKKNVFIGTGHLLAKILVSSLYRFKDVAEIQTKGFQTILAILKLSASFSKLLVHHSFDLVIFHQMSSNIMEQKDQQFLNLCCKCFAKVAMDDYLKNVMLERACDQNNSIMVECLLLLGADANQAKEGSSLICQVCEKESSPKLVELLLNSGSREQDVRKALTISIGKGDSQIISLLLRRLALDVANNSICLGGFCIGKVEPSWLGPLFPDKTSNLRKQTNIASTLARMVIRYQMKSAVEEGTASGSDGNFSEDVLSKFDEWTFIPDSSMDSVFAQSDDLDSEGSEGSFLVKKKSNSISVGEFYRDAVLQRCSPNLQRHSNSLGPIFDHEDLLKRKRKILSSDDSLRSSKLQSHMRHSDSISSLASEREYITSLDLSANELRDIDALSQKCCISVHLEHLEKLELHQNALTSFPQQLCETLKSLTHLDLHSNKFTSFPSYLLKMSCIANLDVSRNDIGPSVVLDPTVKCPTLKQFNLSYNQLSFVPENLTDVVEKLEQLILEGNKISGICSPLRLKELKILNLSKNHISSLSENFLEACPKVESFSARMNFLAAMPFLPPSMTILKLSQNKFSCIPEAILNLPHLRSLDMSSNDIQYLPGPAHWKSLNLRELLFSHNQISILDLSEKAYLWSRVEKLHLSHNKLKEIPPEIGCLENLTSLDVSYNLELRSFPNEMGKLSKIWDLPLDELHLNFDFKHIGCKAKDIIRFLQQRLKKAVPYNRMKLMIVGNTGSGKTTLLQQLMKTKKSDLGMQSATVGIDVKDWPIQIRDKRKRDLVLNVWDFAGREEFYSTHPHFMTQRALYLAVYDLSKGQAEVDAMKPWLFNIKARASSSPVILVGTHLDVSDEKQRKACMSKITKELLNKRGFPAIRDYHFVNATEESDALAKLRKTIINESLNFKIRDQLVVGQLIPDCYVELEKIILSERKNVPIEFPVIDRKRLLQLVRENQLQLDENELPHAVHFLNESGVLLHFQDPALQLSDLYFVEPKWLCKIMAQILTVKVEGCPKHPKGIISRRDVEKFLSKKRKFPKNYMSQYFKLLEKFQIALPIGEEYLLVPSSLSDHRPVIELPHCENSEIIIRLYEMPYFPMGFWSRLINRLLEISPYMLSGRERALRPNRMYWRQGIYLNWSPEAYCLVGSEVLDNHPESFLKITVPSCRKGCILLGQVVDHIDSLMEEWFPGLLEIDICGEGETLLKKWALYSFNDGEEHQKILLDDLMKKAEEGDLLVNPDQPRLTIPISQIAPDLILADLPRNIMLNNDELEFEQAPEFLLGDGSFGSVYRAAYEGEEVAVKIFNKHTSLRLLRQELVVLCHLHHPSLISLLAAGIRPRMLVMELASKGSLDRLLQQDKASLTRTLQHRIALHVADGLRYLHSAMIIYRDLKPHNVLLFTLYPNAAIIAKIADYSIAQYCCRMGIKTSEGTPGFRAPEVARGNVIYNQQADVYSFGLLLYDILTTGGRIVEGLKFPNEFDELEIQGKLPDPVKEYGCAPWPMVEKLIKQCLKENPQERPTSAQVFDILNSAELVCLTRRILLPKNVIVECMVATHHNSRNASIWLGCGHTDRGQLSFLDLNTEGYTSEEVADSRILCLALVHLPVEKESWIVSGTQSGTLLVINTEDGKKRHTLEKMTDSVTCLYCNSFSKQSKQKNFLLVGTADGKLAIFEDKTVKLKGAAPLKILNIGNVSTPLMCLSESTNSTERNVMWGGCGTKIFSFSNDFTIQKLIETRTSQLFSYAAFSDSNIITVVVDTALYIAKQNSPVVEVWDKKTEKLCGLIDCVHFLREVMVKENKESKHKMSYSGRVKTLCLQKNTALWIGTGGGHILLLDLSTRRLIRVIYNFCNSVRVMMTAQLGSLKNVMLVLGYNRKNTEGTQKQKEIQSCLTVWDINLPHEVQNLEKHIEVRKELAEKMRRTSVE
# ASSAY_PROCEDURE: KINOMEscan competition binding
# RUN_PARAMETERS: compound 10.0 µM
Can you tell me kinase still bound, per cent of control for the items I'm about to list?
Unit % implied. Number only.

// kinase still bound, per cent of control value for `CC(C)n1nc(-c2cc3cc(O)ccc3[nH]2)c2c(N)ncnc21` : 2.6

// kinase still bound, per cent of control value for `COc1ccc(-c2ccc3c(N4CCOCC4)nc(N4C[C@@H](C)O[C@@H](C)C4)nc3n2)cc1CO` : 100

// kinase still bound, per cent of control value for `CCC(=O)N1CCN(c2ccc(-n3c(=O)ccc4cnc5ccc(-c6cnc7ccccc7c6)cc5c43)cc2C(F)(F)F)CC1` : 99

// kinase still bound, per cent of control value for `COC(=O)Nc1ccc(-c2nc(N3CCOCC3)c3cnn(C4CCN(C(=O)OC)CC4)c3n2)cc1` : 80

----------
# TARGET_OR_SYSTEM: PLK4 (human) (UniProt O00444)
# ASSAY_PROCEDURE: KINOMEscan competition binding
# RUN_PARAMETERS: compound 10.0 µM
RECORDED_ENDPOINT: kinase still bound, per cent of control
Write the figure, then the unit, nothing else.

// kinase still bound, per cent of control value for `CC(C)n1nc(-c2cc3cc(O)ccc3[nH]2)c2c(N)ncnc21` : 2.6%

// kinase still bound, per cent of control value for `COC(=O)Nc1ccc(-c2nc(N3CCOCC3)c3cnn(C4CCN(C(=O)OC)CC4)c3n2)cc1` : 100%

// kinase still bound, per cent of control value for `COc1ccc(-c2ccc3c(N4CCOCC4)nc(N4C[C@@H](C)O[C@@H](C)C4)nc3n2)cc1CO` : 100%

// kinase still bound, per cent of control value for `CCC(=O)N1CCN(c2ccc(-n3c(=O)ccc4cnc5ccc(-c6cnc7ccccc7c6)cc5c43)cc2C(F)(F)F)CC1` : 100%
